pKi: −log10 of the molar value.
Collected from the literature: pKi of various molecules toward Tyrosine-protein kinase JAK3 (Homo sapiens, UniProt P52333).

Consider the following illustrative entries.
[
  {
    "molecule": "CN1CCN(Cc2ccc(-c3cnc4[nH]cc(-c5oncc5-c5cccc(F)c5F)c4c3)cc2)CC1",
    "tested target": "Tyrosine-protein kinase JAK3 (Homo sapiens, UniProt P52333)",
    "pKi": "> 6.70"
  },
  {
    "molecule": "Nc1nc(Nc2ccccc2)nn1-c1ncc(F)c(N2CCC[C@@H]2C(=O)NCC(F)(F)F)n1",
    "tested target": "Tyrosine-protein kinase JAK3 (Homo sapiens, UniProt P52333)",
    "pKi": "5.00 to 6.00"
  },
  {
    "molecule": "CC(=O)N1CC=C(c2ncnc3[nH]ccc23)CC1",
    "tested target": "Tyrosine-protein kinase JAK3 (Homo sapiens, UniProt P52333)",
    "pKi": "< 5.30"
  },
  {
    "molecule": "O=C(Cc1ccccc1F)Nc1nc(-c2ncnc3[nH]ccc23)cs1",
    "tested target": "Tyrosine-protein kinase JAK3 (Homo sapiens, UniProt P52333)",
    "pKi": "6.30 to 7.00"
  },
  {
    "molecule": "CCC(=O)Nc1nc(N[C@@H](C)c2ccc(F)cc2F)cc(-c2cnn3cccnc23)n1",
    "tested target": "Tyrosine-protein kinase JAK3 (Homo sapiens, UniProt P52333)",
    "pKi": "6.30 to 7.00"
  },
  {
    "molecule": "c1ccc(-c2onc3ccc(C4Nc5ccccc5-c5ccnc6[nH]cc4c56)cc23)cc1 (stereo not shown)",
    "tested target": "Tyrosine-protein kinase JAK3 (Homo sapiens, UniProt P52333)",
    "pKi": "< 5.60"
  },
  {
    "molecule": "Nc1nn2cc(CCCN3CC[C@H](O)C3)cnc2c1-c1ccccn1",
    "tested target": "Tyrosine-protein kinase JAK3 (Homo sapiens, UniProt P52333)",
    "pKi": "< 5.30"
  },
  {
    "molecule": "Oc1c(F)cc(C2Nc3ccccc3-c3ncnc4[nH]cc2c34)cc1F (stereo not shown)",
    "tested target": "Tyrosine-protein kinase JAK3 (Homo sapiens, UniProt P52333)",
    "pKi": "≥ 6.60"
  }
]

Then this molecule:
Kindly state the measured pKi obtained for `C=C(C)COc1nc(N[C@@H](C)c2ccc(F)cc2)cc(-c2c(N)nn3cccnc23)n1` with Tyrosine-protein kinase JAK3 (Homo sapiens, UniProt P52333).
6.30 to 7.00

* * *

Collected from the literature: Ki of various compounds toward Tyrosine-protein kinase JAK3 (Homo sapiens, UniProt P52333).

Consider the following illustrative entries.
[
  {
    "compound": "CC[C@H](Nc1ccnc(-c2cnn3cccnc23)n1)c1ccc(F)c(F)c1",
    "Ki": "0.5 to 5 µM"
  },
  {
    "compound": "CC(C)C(Nc1nc(-c2c[nH]c(C(=O)NCC3CC3)c2)ncc1F)C(=O)NCC(F)(F)F (stereo not drawn)",
    "Ki": "10 to 50 µM"
  }
]

Then this compound:
Kindly state the measured Ki obtained for COc1ccc(C2Nc3ccccc3-c3ccnc4[nH]cc2c34)c(Cl)c1O (stereo not drawn) with Tyrosine-protein kinase JAK3 (Homo sapiens, UniProt P52333).
0.25 to 2.5 µM
